Molecular target: cynomolgus monkey CD98 ECD
Sequence (as listed by the source): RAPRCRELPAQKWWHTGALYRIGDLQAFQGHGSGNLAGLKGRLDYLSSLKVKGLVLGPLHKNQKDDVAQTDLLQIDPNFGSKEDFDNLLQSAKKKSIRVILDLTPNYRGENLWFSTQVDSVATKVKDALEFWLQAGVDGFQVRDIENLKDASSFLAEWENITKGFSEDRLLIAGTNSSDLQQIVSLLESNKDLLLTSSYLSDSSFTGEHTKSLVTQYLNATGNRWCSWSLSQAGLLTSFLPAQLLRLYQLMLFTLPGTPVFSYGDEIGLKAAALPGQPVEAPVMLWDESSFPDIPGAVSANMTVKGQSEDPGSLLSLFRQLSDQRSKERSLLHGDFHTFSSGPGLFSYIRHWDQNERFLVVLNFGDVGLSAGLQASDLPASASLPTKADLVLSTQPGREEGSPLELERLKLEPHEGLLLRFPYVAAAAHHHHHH
Assay: Biacore surface plasmon resonance binding kinetics (anti-Fc capture)
Settings: cyCD98 ECD
Experimental: The binding kinetics of these purified mouse and rat monoclonal anti-CD98 antibodies for purified recombinant CD98 protein (extracellular domain, ECD) were determined by surface plasmon resonance-based measurements made on Biacore T100/T200 instruments (GE Healthcare, Piscataway, N.J.) at 25° C. using an anti-Fc capture assay approach. Binding kinetic measurements were made in the assay buffer HBS-EP+: 10 mM Hepes, pH 7.4, 150 mM NaCl, 3 mM EDTA, 0.05% Tween 20). […]
MEASUREMENT TYPE: kd (s⁻¹)

huAb15v4 (antibody, V domains shown) VH: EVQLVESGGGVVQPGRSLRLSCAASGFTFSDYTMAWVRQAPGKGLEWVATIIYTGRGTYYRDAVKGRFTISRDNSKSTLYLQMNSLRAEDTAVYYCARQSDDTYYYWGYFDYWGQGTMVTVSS VL: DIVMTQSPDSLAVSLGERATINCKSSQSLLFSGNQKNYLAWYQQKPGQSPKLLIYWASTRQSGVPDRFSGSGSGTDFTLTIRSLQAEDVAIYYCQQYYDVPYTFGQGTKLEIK : 5e-05
huAb105: "heavy chain variable sequence of huAb105 is provided in SEQ ID NO: 111"; "light chain variable sequence ... in SEQ ID NO: 112" (antibody, V domains shown) VH: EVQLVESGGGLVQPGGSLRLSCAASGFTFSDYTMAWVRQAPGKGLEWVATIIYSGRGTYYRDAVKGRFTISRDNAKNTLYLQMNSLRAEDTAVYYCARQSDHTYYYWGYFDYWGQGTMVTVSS VL: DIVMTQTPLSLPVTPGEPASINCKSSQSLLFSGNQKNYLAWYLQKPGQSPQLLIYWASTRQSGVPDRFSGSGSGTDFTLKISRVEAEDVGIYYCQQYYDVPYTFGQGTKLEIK : 5.3e-05
